# measuredOn: AKAP18δ-PLB interaction (UniProt P26678+Q6JP77)
# Sequence (Q6JP77 whole entry): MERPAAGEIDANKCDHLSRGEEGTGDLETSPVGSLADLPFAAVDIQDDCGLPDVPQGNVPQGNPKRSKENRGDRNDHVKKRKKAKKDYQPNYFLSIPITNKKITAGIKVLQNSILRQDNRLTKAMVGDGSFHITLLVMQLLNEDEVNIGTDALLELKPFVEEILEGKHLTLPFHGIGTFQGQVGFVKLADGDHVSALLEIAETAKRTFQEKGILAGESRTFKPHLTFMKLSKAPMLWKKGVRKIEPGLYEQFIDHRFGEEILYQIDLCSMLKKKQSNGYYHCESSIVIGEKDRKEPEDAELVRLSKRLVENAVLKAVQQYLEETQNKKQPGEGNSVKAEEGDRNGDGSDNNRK
# Sequence (P26678 whole entry): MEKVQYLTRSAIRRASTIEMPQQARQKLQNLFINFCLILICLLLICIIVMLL
# protocolText: AlphaScreen binding assay of the GST-AKAP18δ : PLB-biotin interaction
# conditionParameters: compound library screen; Table 1 compounds similar to those of formula (I); read-out: EC50
measuredAttribute: EC50 (µM)

[A] COc1ccc(CN(Cc2ccc(F)cc2)Cc2nc(C(=O)O)cs2)cc1
[B] CCN(CC)c1ccc(CN(Cc2ccccc2)Cc2ccc(N(CC)CC)cc2)cc1
[C] O=C(O)c1csc(CN(Cc2cccc(C(F)(F)F)c2)Cc2ccccc2F)n1
[D] Cc1ccc(CN(Cc2cccc(C(F)(F)F)c2)Cc2nc(C(=O)O)cs2)cc1
Task for the reader: rank each entry by its EC50, from the minimum upward. Answer format: the labels, in the requested order. B, A, D, C
(B: 2.9 µM, A: 25.6 µM, D: 98.3 µM, C: 216 µM)
